Where these numbers come from: ChEMBL document CHEMBL4020734

# Method Description: Cytotoxicity against human HepG2 cells assessed as cellular ATP level at 100 uM after 1 day by ATPLite assay relative to control
# Format: cell-based
# Condition Summary: read-out: Activity
Field 'label' (enum: 1 (yes) / 0 (no)). Set to 1 (yes) when viability at 24 h, 100 µM is strictly under 90%; else 0 (no).

CNCc1cc(-c2cnccc2C)n(S(=O)(=O)c2cccnc2)c1    1 (yes)
CNCc1cc(-c2cccnc2Cl)n(S(=O)(=O)c2ccccc2)c1    1 (yes)

Enquiry: Bench note: check whether CNCc1cc(-c2cccnc2C#N)n(S(=O)(=O)c2cccnc2)c1 shows viability at 24 h, 100 µM below 90%
Return: 1 (yes)

Enquiry: Please state whether viability at 24 h, 100 µM is below 90% for CNCc1cc(-c2cccnc2F)n(S(=O)(=O)c2cccc(OC)c2)c1
Return: 1 (yes)

Enquiry: I'd appreciate it if you could check whether CNCc1cc(-c2cccnc2Cl)n(S(=O)(=O)c2cccnc2)c1 has viability at 24 h, 100 µM smaller than 90%.
Return: 1 (yes)

====

# Method Description: Inhibition of H+/K+-ATPase in porcine stomach gastric mucosal microsomes assessed as reduction in inorganic phosphate production using ATP as substrate preincubated for 30 mins followed by ATP addition in presence of KCl by malachite green reagent based colorimetric assay
# Parameters: species or system Sus scrofa
Quantity Measured: IC50 (nM)
Answer format: numeric, nM implied, no suffix.

Would you please look over these solved cases?
CNCc1cc(-c2cccnc2F)n(S(=O)(=O)c2cccnc2)c1    210
CNCc1cc(-c2cnccc2C)n(S(=O)(=O)c2cccnc2)c1    230
CNCc1cc(-c2cccnc2F)n(S(=O)(=O)c2cccs2)c1    32
CNCc1cn(S(=O)(=O)c2cccnc2)c(-c2cccnc2F)c1Cl    99
CNCc1cc(-c2cccnc2F)n(S(=O)(=O)c2ccccc2)c1    26

Enquiry: So what's the measured IC50 for this one? CNCc1cc(-c2cccnc2F)n(S(=O)(=O)c2ccco2)c1
Return: 59

====

Consider the following molecules and their measured pIC50 readings.
# Method Description: Inhibition of H+/K+-ATPase in porcine stomach gastric mucosal microsomes assessed as reduction in inorganic phosphate production using ATP as substrate preincubated for 30 mins followed by ATP addition in presence of KCl by malachite green reagent based colorimetric assay
# Parameters: species or system Sus scrofa
The scale used: pIC50 is minus the common logarithm of the concentration in molar units.

CNCc1cc(-c2cccnc2F)n(S(=O)(=O)c2ccsc2)c1    7.49
CNCc1cc(-c2cccc(F)c2)n(S(=O)(=O)c2ccc(C)cc2)c1    7.72
CNCc1cc(-c2cccnc2F)n(S(=O)(=O)c2cccc(OC)c2)c1    7.55

Now for the molecule whose pIC50 we want.
Enquiry: Reported pIC50 for CNCc1cc(-c2cncnc2)n(S(=O)(=O)c2ccccc2)c1 : what is it?
Return: 6.39

====

The following molecules are listed with their measured pKa values.
# Method Description: Dissociation constant, pKa of the compound
# Assay type: physicochemical
Format: numeric value only, no unit, no commentary.

CNCc1cc(-c2ccc(F)cc2)n(S(=O)(=O)c2ccc(C)cc2)c1    9.4
CNCc1cn(S(=O)(=O)c2cccnc2)c(-c2cccnc2F)c1F    8.54
CNCc1cc(-c2cccc(F)c2)n(S(=O)(=O)c2ccc(C)cc2)c1    9.31
CNCc1cc(-c2ccccc2F)n(S(=O)(=O)c2ccc(C)cc2)c1    9.48

Enquiry: # get_value(readout='pKa', item= CNCc1cc(-c2ccccc2F)n(S(=O)(=O)c2cccnc2)c1 )
Return: 9.3

Enquiry: Look up pKa: CNCc1cc(-c2ccccc2)n(S(=O)(=O)c2ccc(C)cc2)c1
Return: 9.49

Enquiry: Quick check: pKa of CNCc1cc(-c2ccccc2)n(S(=O)(=O)c2ccc(OC)cc2)c1 ?
Return: 9.48
